# Target under test: Lipoprotein Lipase (Bacterial)
# Run parameters: reporter compound (17); read-out: apparent IC50 with lipoprotein lipase, FRET assay
Measured metric: IC50

## Input For the molecule CCCCCCCCCCC[C@@H](C[C@@H]1OC(=O)[C@H]1CCCCCC)OC(=O)[C@H](CC(C)C)NC=O [Compound 3, tetrahydrolipstatin] , what IC50 is on record?
## Output ~100 nM

* * *

Would you kindly list Lipoprotein Lipase (Bacterial) inhibition at 10 μM (%) for each of these molecules?
# Tested on: Lipoprotein Lipase (Bacterial)
# Format: biochemical, Pseudomonas sp.
Express it in %; write the number only.

## Input For the molecule O=C(Oc1ccc([N+](=O)[O-])cc1)N1CCC(C(O)(c2ccc3c(c2)OCO3)c2ccc3c(c2)OCO3)CC1 [JZL184] , what Lipoprotein Lipase (Bacterial) inhibition at 10 μM (%) is on record?
## Output 36

## Input For the molecule NC(=O)c1cccc(-c2cccc(OC(=O)NC3CCCCC3)c2)c1 [URB597] , what Lipoprotein Lipase (Bacterial) inhibition at 10 μM (%) is on record?
## Output 21

* * *

Would you kindly list mDAGLα inhibition at 10 nM (%) for each of these compounds?
# Target under test: mDAGLα (Mus musculus)
# Sequence (Q6WQJ1 whole entry): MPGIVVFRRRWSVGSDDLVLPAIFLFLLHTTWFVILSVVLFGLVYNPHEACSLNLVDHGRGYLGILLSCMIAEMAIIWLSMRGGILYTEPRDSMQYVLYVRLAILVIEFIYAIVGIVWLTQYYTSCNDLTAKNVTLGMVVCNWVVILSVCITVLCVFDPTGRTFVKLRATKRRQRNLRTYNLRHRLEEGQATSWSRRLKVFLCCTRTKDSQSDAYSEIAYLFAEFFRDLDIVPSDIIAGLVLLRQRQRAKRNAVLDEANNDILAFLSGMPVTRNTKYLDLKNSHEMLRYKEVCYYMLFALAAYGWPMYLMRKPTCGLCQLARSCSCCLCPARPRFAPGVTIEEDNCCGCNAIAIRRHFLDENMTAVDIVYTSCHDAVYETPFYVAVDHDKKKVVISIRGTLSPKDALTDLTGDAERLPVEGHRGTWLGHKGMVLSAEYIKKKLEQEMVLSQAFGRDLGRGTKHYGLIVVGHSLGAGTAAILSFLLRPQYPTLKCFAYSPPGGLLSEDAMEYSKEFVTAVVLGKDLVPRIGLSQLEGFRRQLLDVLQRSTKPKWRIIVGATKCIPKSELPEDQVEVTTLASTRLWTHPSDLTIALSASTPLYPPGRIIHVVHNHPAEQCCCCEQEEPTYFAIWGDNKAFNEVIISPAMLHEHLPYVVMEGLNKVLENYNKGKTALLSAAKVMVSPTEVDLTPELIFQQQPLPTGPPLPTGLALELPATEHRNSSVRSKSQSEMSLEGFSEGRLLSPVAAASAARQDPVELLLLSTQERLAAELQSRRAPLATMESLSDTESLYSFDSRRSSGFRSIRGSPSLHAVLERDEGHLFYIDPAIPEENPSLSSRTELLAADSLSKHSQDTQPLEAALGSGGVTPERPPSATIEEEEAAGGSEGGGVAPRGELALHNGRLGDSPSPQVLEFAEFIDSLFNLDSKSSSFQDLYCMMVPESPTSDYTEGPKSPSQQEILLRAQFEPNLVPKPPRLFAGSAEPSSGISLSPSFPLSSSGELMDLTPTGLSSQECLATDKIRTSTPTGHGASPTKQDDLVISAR
# Procedure summary: Radio-TLC assay with [14C]SAG substrate, mDAGLα
# Run parameters: 10 nM
Express it in %; write the number only.

## Input For the compound CCCCCCCCCCCC(CC1OC(=O)C1CCCCCC)OC(=O)C(NC=O)C(C)CC (stereo not shown) [Compound 6] , what mDAGLα inhibition at 10 nM (%) is on record?
## Output 33

## Input For the compound CCCCCCCCCCC[C@@H](C[C@@H]1OC(=O)[C@H]1CCCCCC)OC(=O)[C@@H](NC=O)[C@@H](C)CC [Compound 4] , what mDAGLα inhibition at 10 nM (%) is on record?
## Output 69

## Input For the compound CCCCCCCCCCC[C@@H](C[C@@H]1OC(=O)[C@H]1CCCCCC)OC(=O)[C@@H](NC=O)[C@H](C)CC [Compound 5] , what mDAGLα inhibition at 10 nM (%) is on record?
## Output 60

## Input For the compound CCCCCCCCCCC[C@@H](C[C@@H]1OC(=O)[C@H]1CCCCCC)OC(=O)[C@H](NC=O)[C@@H](C)CC [Compound 7] , what mDAGLα inhibition at 10 nM (%) is on record?
## Output 19

* * *

Would you kindly list hDAGLα inhibition at 10 μM detergent free (%), FRET for each of these compounds?
# Target under test: hDAGLα (Homo sapiens)
# Sequence (Q9Y4D2 whole entry): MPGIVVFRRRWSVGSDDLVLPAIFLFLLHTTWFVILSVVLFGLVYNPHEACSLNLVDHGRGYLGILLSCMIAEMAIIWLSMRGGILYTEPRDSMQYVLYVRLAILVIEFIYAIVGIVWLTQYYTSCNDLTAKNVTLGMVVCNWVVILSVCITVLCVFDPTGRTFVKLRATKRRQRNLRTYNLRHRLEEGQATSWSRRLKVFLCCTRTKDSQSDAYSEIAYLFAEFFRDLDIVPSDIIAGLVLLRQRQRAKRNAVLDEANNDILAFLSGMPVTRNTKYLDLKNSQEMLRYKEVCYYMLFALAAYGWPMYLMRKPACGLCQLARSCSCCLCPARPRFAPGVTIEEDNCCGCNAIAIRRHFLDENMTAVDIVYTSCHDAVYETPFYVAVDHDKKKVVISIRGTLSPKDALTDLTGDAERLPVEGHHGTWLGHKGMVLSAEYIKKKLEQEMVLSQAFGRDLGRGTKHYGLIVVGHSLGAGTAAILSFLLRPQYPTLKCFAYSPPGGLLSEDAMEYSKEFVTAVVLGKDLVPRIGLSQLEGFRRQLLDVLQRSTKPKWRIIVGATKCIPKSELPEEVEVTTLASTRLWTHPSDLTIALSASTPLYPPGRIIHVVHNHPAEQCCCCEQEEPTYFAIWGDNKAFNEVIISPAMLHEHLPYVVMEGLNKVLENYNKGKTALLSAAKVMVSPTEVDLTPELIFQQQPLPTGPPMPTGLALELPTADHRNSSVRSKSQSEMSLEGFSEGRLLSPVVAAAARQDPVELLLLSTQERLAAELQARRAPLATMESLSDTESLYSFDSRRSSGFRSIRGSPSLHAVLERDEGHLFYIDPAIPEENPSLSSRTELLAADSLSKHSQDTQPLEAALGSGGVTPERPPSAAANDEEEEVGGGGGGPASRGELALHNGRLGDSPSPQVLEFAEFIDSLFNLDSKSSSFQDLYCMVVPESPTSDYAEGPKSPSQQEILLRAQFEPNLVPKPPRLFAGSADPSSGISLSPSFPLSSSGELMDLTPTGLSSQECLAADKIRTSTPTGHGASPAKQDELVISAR
# Run parameters: 10 μM; detergent free
Express it in %; write the number only.

## Input Observed hDAGLα inhibition at 10 μM detergent free (%), FRET on hDAGLα (Homo sapiens) for CCCCCCCCCCC[C@@H](C[C@@H]1OC(=O)[C@H]1CCCCCC)OC(=O)[C@@H](NC=O)[C@@H](C)CC [Compound 4] , please.
## Output 92

## Input Observed hDAGLα inhibition at 10 μM detergent free (%), FRET on hDAGLα (Homo sapiens) for CCCCCCCCCCCC(CC1OC(=O)C1CCCCCC)OC(=O)C(NC=O)C(C)CC (stereo not shown) [Compound 6] , please.
## Output 90

## Input Observed hDAGLα inhibition at 10 μM detergent free (%), FRET on hDAGLα (Homo sapiens) for CCCCCCCCCCC[C@@H](C[C@@H]1OC(=O)[C@H]1CCCCCC)OC(=O)[C@@H](NC=O)[C@H](C)CC [Compound 5] , please.
## Output 92

## Input Observed hDAGLα inhibition at 10 μM detergent free (%), FRET on hDAGLα (Homo sapiens) for CCCCCCCCCCC[C@@H](C[C@@H]1OC(=O)[C@H]1CCCCCC)OC(=O)[C@H](NC=O)[C@@H](C)CC [Compound 7] , please.
## Output 90
